experiment: yeast display, Sf9 membrane polyspecificity reagent, FACS + sequencing; frameworks hold sequencing errors

{"chain": "QVQLVESGGGLVQAGGSLRLSCAASGFIFYHNAMGWYRQAPGKERELVAAISSTGGSTHYADSVKGRFTISRDNAKNTVYLQMNSLKPEDTAVYYCNADPRRRWYDYWGQGTQVTVSS", "polyreactivity (PSR sort gate)": "high polyreactivity"}
{"chain": "QVQLVESGGGLVQAGGSLRLSCDASGFTFPSYAMGWYRQAPGKERELVAAISYRGGRTYYADSVKGRFTISRDNAKNTVYLQMNSLKPEDTAVYYCAAAGYAWWGEYEYWGQGTQVTVSS", "polyreactivity (PSR sort gate)": "high polyreactivity"}
{"chain": "QVQLVESGGGLVHAGSSLRLSCAASGSTYPYNAMGWYRQAPGKERELVAAIDYSGGSTYAVSVKGRFTISRDNAKNTVYLQMNSLTPEDTAVYYCAYCRVVVYDVSGDDEDYDYWGQGSQVTVSS", "polyreactivity (PSR sort gate)": "low polyreactivity"}
{"chain": "QVQLVESGGGLVQAGGSLRLSSAASGGTFWIYAMGWYRQAPGKERELVSGITTSGATTYYADSVKGRFTISRDNAKNTVYLQMNRLKPEDTAVYYCAADEYYRYEYWGQGTQVTESS", "polyreactivity (PSR sort gate)": "low polyreactivity"}
{"chain": "QVQLVESGGGLVQAGGSLRLSCAASGFTFSGYDMGWYRQAPGKERELVAGISSVDHTYYADSVKGRFTISRDNAKNTVYLQMNSLKPEDTAVYYCAATLWPYYYVEYDYWGQGTEVTVSS", "polyreactivity (PSR sort gate)": "low polyreactivity"}
{"chain": "QVQLVESGGGLVQAGGSLRLSCAASGSTFNRYAMGWYRQAPGKERELVASISWGGGRTYYADSVKGRFTISRDNAKNTVYLQMNSLKPEDSAVYYCAAGGALASQWSTKLYDYWGQGTQVTVSS", "polyreactivity (PSR sort gate)": "low polyreactivity"}
{"chain": "QVQLVESGGGLVQAGGSLRLSCAASGYTFSRYAMGWYRQAPGKERELVADISRSGGSTDYADSVKGRFTISRDNAKNTVYLQMNSLKPEETAVYYCAKGSWWGYYSYGFDYWGQGTQVTVSS", "polyreactivity (PSR sort gate)": "high polyreactivity"}
{"chain": "QVQLVESGGGLVQAGGSLRLSCAASGSIFIYNAMGWYRQAPGKERELVAAINWTGGSTYYADSVKGRFTISRDNAKNTVYLQMNSMKPEDTAVYYCNALRYGSTRGYDYWGQGSQVTVSS", "polyreactivity (PSR sort gate)": "high polyreactivity"}
{"chain": "QVQLVESGGGLVQAGGSLRLSCAASGRTSVNYAMGWYREAPGKERELVASITYSDGRTYYADSVKGRFTISRDNAKNTVYLQMNSLKPEDTAVYYCAARGYSYRGWRMDYWGQGTQVTVSS", "polyreactivity (PSR sort gate)": "high polyreactivity"}
{"chain": "QVQLVESGGGLVQAGGSLRLSCAASGSTFLLNAMGWSRQAPGKDRELVAAITWTGGSTYYADSVKGRFTISRDNAKNTVYLQMNILKPEDTAVYYCAAETYVTSYDYWGQGTQVTVSS", "polyreactivity (PSR sort gate)": "low polyreactivity"}
